Entry source: patent US20080044413A1

Catalogue of binders with associated log10 kon
# MEASURED TARGET: T1, Human EphA2-Fc fusion protein (human, UniProt P29317 24-537)
# T1 construct: extracellular domain; Expressed in HEK 293 cells; Biotinylated in the capture ELISAs; also called soluble EphA2 Fc fusion protein; not shown: Fc portion of a human IgG1
# TEST PROTOCOL: SPR (BIAcore 3000), purified monomeric scFv, human EphA2
READOUT NAME: log10 kon (log10 of the value in M⁻¹ s⁻¹)

BINDER	log10 kon
VH VL 2A4 scFv (scFv, FLAG and His tags as for 4H5 scFv) scFv: QVQLLESGGGLVQPGGSLRLSCAASGFTFSSYTMSWVRQAPGQALEWMGTISSRGTYTYYPDSVKGRFTISRDNAKNSLYLQMNSLRAEDTAVYYCAREAIFTHWGRGTLVTVSSGGGGSGGGGSGGGGSDIQLTQSPSSLSASVGDRVTITCKASQDINNYHSWYQQKPGQAPRLLIYRANRLVDGVPDRFSGSGYGTDFTLTINNIESEDAAYYFCLKYNVFPYTFGQGTKVEIK	5.81
parental anti-EphA2 scFv EA2 (scFv, The murine EA2 variable regions were cloned in the same manner as the 4H5 scFv (VH, linker, VL, FLAG, His); also called EA2 scFv; not shown: C-terminal FLAG tag and His tag) scFv: DVKLVESGGGLVKPGGSLKLSCAASGFTFSSYTMSWVRQTPEKRLEWVATISSGGTYTYYPDSVKGRFTISRDNAKNTLYLQMSSLKSEDTAMYYCTREAIFTYWGQGTLVTVSAGGGGSGGGGSGGGGSDIKMTQSPSSMYASLGERVTITCKASQDINNYLSWFQQKPGKSPKTLIYRANRLVDGVPSRFSGSGSGQDYSLTISSLEYEDMGIYYCLKYDEFPYTFGGGTKLEIK	4.53
VH VL 12E2 scFv (scFv, FLAG and His tags as for 4H5 scFv) scFv: QVQLLESGGGLVQPGGSLRLSCAASGFTFSSYTMSWVRQAPGQALEWMGTISSRGTYTYYPDSVKGRFTISRDNAKNSLYLQMNSLRAEDTAVYYCAREAIFTYWGRGTLVTVSSGGGGSGGGGSGGGGSDIQLTQSPSSLSASVGDRVTITCKASQDINNYLSWYQQKPGQAPRLLIYRANRLFDGVPDRFSGSGYGTDFTLTINNIESEDAAYYFCLKYDRFPYTFGQGTKVEIK	5.72
VH VL 2E7 scFv (scFv, FLAG and His tags as for 4H5 scFv) scFv: QVQLLESGGGLVQPGGSLRLSCAASGFTFSSYTMSWVRQAPGQALEWMGTISSRGTYTYYPDSVKGRFTISRDNAKNSLYLQMNSLRAEDTAVYYCAREAIFTHWGRGTLVTVSSGGGGSGGGGSGGGGSDIQLTQSPSSLSASVGDRVTITCKASQDINNYGSWYQQKPGQAPRLLIYRANRLVDGVPDRFSGSGYGTDFTLTINNIESEDAAYYFCLKYNRFPYTFGQGTKVEIK	5.75
4H5 VH-VL scFv humanized clone (scFv, Expressed with a C-terminal FLAG tag and His tag; also called 4H5 scFv; scFv 4H5) scFv: QVQLLESGGGLVQPGGSLRLSCAASGFTFSSYTMSWVRQAPGQALEWMGTISSGGTYTYYPDSVKGRFTISRDNAKNSLYLQMNSLRAEDTAVYYCAREAIFTYWGRGTLVTVSSGGGGSGGGGSGGGGSDIQLTQSPSSLSASVGDRVTITCKASQDINNYLSWYQQKPGQAPRLLIYRANRLVDGVPDRFSGSGYGTDFTLTINNIESEDAAYYFCLKYDVFPYTFGQGTKVEIK	5.00
